# tested-target: Human DHODH (Homo sapiens)
# Construct: C-terminal His6-tagged HsDHODH residues 29-395 in pET-22b (start ^29MATGDE); His6 (C); made in house; host or cells: E. coli BL21-DE3 (phage-resistant)
# experimental-details: DHODH inhibition, steady-state DCIP assay (human DHODH)
# Format: biochemical
# condition: recombinant HsDHODH, DCIP method, 25°C, 5 nM enzyme; top concentration 100 µM or 30 µM
# From the text: DOI: 10.1074/jbc.M206854200). Proteins were expressed and purified on a Pharmacia FPLC using HisTrap HP column chromatography followed by gel filtration chromatography on a Pharmacia HiLoad 16/600 Superdex 200 column, and protein concentration determined based on OD280 using the previously described extinction coefficients (Kokkonda et al., 2020, J Med Chem, 63 (9), 4929-4956. DOI: 10.1021/acs.jmedchem.0c00311). Purified proteins were >95% pure based on SDS-PAGE analysis. […]
measurement-name: IC50 (µM)
Please reply with the bare figure in µM and do not write the unit itself.

IC50 recorded for this compound, CCn1ccc2c([C@@](O)(CC)c3cnc(C(F)(F)F)c(Cl)c3)n(C)nc2c1=O (single isomer, unassigned) , is 41

IC50 recorded for this compound, CCn1ncc2c([C@@](O)(CC)c3ccc(C(F)(F)F)c(Cl)c3)n(C)nc2c1=O (single isomer, unassigned) , is 11

IC50 recorded for this compound, Cn1nc2c(=O)n(C3CC3)ccc2c1[C@](N)(c1cnc(C(F)(F)F)c(Cl)c1)C1CC1 (single isomer, unassigned) , is 21

IC50 recorded for this compound, CC[C@@](N)(c1ccc(C(F)(F)F)c(Cl)c1)c1c2ccn(C3CC3)c(=O)c2nn1C (single isomer, unassigned) , is 1

IC50 recorded for this compound, CC[C@@](O)(c1ccc(C(F)(F)F)c(C#N)c1)c1c2ccn(C3CC3)c(=O)c2nn1C (single isomer, unassigned) , is 0.91

IC50 recorded for this compound, Cn1nc2c(=O)n(C3CC3)ncc2c1[C@](N)(c1ccc(C(F)(F)F)c(Cl)c1)C1CC1 (single isomer, unassigned) , is 16

###

# tested-target: Human DHODH (Homo sapiens, UniProt Q02127)
# Construct: C-terminal His6-tagged HsDHODH residues 29-395 in pET-22b (start ^29MATGDE); His6 (C)
# Sequence (Q02127 29-395): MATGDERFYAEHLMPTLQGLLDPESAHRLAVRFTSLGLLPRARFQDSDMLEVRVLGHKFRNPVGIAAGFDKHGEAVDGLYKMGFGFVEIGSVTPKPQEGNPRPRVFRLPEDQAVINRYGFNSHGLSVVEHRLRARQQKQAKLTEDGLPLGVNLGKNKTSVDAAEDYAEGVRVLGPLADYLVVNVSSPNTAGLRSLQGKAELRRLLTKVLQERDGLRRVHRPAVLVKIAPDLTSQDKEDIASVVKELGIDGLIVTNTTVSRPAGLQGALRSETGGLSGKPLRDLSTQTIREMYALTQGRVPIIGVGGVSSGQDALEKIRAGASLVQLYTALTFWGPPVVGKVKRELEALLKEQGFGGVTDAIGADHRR
# experimental-details: DHODH inhibition, steady-state DCIP assay (human DHODH)
# condition: recombinant HsDHODH, DCIP method, 25°C, 5 nM enzyme; top concentration 100 µM or 30 µM
pIC50: −log10 of the molar value.
Record form. Attribute: pIC50. Fill in for each entry.

pIC50 recorded for this compound, Cn1nc2c(=O)n(C3CC3)ccc2c1[C@](N)(c1cnc(C(F)(F)F)c(Cl)c1)C(F)(F)F (single isomer, unassigned) , is < 4.52

pIC50 recorded for this compound, CCn1ccc2c([C@](O)(c3ccc(C(F)(F)F)nc3)C(C)C)n(C)nc2c1=O (single isomer, unassigned) , is < 4.00

pIC50 recorded for this compound, CCn1ccc2c([C@](O)(c3ccc(C(F)(F)F)nc3)C3CC3)n(C)nc2c1=O (single isomer, unassigned) , is < 4.00

pIC50 recorded for this compound, Cn1nc2c(=O)n(C3CC3)ccc2c1[C@](O)(c1cnc(C(F)(F)F)c(Cl)c1)C(F)(F)F (single isomer, unassigned) , is < 4.52

pIC50 recorded for this compound, Cn1nc2c(=O)n(CC(F)(F)F)cnc2c1[C@](O)(c1ccc(C(F)(F)F)c(Cl)c1)C(F)(F)F , is < 4.52

pIC50 recorded for this compound, CC[C@@](O)(c1cnc(C(F)(F)F)c(Cl)c1)c1c2cnn(C3CC3)c(=O)c2nn1C (single isomer, unassigned) , is < 4.52

pIC50 recorded for this compound, Cn1nc2c(=O)n(C3CC3)cnc2c1[C@](O)(c1cnc(C(F)(F)F)c(Cl)c1)C1CC1 (single isomer, unassigned) , is < 4.52

pIC50 recorded for this compound, CCn1cnc2c([C@](C)(O)c3ccc(C(F)(F)F)c(C#N)c3)n(C)nc2c1=O (single isomer, unassigned) , is < 4.00

pIC50 recorded for this compound, Cn1nc2c(=O)n(C3CC3)cnc2c1[C@](N)(c1ccc(C(F)(F)F)c(C#N)c1)C(F)(F)F (single isomer, unassigned) , is < 4.52

pIC50 recorded for this compound, Cn1nc2c(=O)n(C3CC3)ncc2c1[C@](O)(c1ccc(C(F)(F)F)c(C#N)c1)C1CC1 (single isomer, unassigned) , is < 4.52

###

Record form. Attribute: IC50. Fill in for each entry.
# tested-target: P. vivax DHODH (Plasmodium vivax)
# experimental-details: DHODH inhibition, steady-state DCIP assay (PvDHODH)
# Assay type: biochemical
# condition: recombinant PvDHODH, DCIP method, 25°C, 5 nM enzyme; read-out: P. vivax DHODH (IC50)
Please reply with the bare figure in nM and do not write the unit itself.

IC50 recorded for this compound, CCn1cc(F)c2c([C@@](O)(CC)c3ccc(C(F)(F)F)nc3)n(C)nc2c1=O (single isomer, unassigned) , is 33

IC50 recorded for this compound, Cn1nc2c(=O)n(C3CC3)ccc2c1[C@](N)(c1ccc(C(F)(F)F)c(Cl)c1)C(F)(F)F (single isomer, unassigned) , is 4.2

IC50 recorded for this compound, CCn1ccc2c([C@](O)(c3ccc(F)c(Cl)c3)C3CC3)n(C)nc2c1=O (single isomer, unassigned) , is 4.3

IC50 recorded for this compound, Cn1nc2c(=O)n(CC(F)(F)F)cnc2c1[C@](O)(c1ccc(C(F)(F)F)c(Cl)c1)C(F)(F)F , is 25

IC50 recorded for this compound, Cn1nc2c(=O)n(C3CC3)cnc2c1[C@](N)(c1ccc(C(F)(F)F)c(Cl)c1)C1CC1 (single isomer, unassigned) , is 8.7

IC50 recorded for this compound, CCn1ccc2c([C@](O)(c3ccc(C(F)(F)F)nc3)C(C)C)n(C)nc2c1=O (single isomer, unassigned) , is 44

IC50 recorded for this compound, Cn1nc2c(=O)n(C3CC3)cnc2c1[C@](O)(c1ccc(C(F)F)c(C#N)c1)C(F)(F)F (single isomer, unassigned) , is 3.5

###

# tested-target: P. vivax DHODH (Plasmodium vivax, UniProt A5K1N1)
# Sequence (A5K1N1 entry or part of it): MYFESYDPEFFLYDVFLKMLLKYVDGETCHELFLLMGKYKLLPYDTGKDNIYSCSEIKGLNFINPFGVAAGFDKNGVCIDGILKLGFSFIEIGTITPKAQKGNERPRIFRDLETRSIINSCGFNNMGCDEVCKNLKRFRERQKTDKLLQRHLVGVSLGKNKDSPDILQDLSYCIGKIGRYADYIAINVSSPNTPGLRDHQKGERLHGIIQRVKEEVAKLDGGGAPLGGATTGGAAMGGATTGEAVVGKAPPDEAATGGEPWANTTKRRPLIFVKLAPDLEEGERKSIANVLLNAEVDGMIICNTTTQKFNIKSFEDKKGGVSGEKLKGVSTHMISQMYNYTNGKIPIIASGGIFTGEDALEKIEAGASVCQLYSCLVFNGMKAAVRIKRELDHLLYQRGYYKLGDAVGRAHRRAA
# experimental-details: DHODH inhibition, steady-state DCIP assay (PvDHODH)
# Format: biochemical
# condition: recombinant PvDHODH, DCIP method, 25°C, 5 nM enzyme; read-out: P. vivax DHODH (IC50)
# Text: DOI: 10.1074/jbc.M206854200). Proteins were expressed and purified on a Pharmacia FPLC using HisTrap HP column chromatography followed by gel filtration chromatography on a Pharmacia HiLoad 16/600 Superdex 200 column, and protein concentration determined based on OD280 using the previously described extinction coefficients (Kokkonda et al., 2020, J Med Chem, 63 (9), 4929-4956. DOI: 10.1021/acs.jmedchem.0c00311). Purified proteins were >95% pure based on SDS-PAGE analysis. […]
Record form. Attribute: pIC50. Fill in for each entry.
Just the number, please; pIC50 means minus log10 of the concentration in mol/L.

// assay P. vivax DHODH (Plasmodium vivax, UniProt A5K1N1), entry Cn1nc2c(=O)n(C3CC3)cnc2c1[C@](O)(c1ccc(C(F)(F)F)nc1)C1CC1 (single isomer, unassigned) , pIC50 value = 7.23

// assay P. vivax DHODH (Plasmodium vivax, UniProt A5K1N1), entry Cn1nc2c(=O)n(C3CC3)cnc2c1[C@](N)(c1ccc(C(F)(F)F)c(C#N)c1)C(F)(F)F (single isomer, unassigned) , pIC50 value = 7.66

// assay P. vivax DHODH (Plasmodium vivax, UniProt A5K1N1), entry CCn1cc(C2CC2)c2c([C@H](O)c3cnc(C(F)(F)F)c(Cl)c3)n(C)nc2c1=O (single isomer, unassigned) , pIC50 value = 7.96

// assay P. vivax DHODH (Plasmodium vivax, UniProt A5K1N1), entry CCn1ccc2c([C@@](O)(CC)c3cnc(C(F)(F)F)c(Cl)c3)n(C)nc2c1=O (single isomer, unassigned) , pIC50 value = 8.10

// assay P. vivax DHODH (Plasmodium vivax, UniProt A5K1N1), entry CC[C@@](O)(c1ccc(F)c(Cl)c1)c1c2cnn(C3CC3)c(=O)c2nn1C (single isomer, unassigned) , pIC50 value = 8.02

// assay P. vivax DHODH (Plasmodium vivax, UniProt A5K1N1), entry Cn1nc2c(=O)n(C3CC3)ncc2c1[C@](O)(c1cnc(C(F)(F)F)c(Cl)c1)C(F)(F)F (single isomer, unassigned) , pIC50 value = 7.70

// assay P. vivax DHODH (Plasmodium vivax, UniProt A5K1N1), entry CC[C@@](O)(c1ccc(C(F)(F)F)nc1)c1c2ccn(C3CC3)c(=O)c2nn1C (single isomer, unassigned) , pIC50 value = 7.32

// assay P. vivax DHODH (Plasmodium vivax, UniProt A5K1N1), entry Cn1nc2c(=O)n(C3CC3)ccc2c1[C@](O)(c1ccc(F)c(Cl)c1)C(F)(F)F (single isomer, unassigned) , pIC50 value = 8.01

// assay P. vivax DHODH (Plasmodium vivax, UniProt A5K1N1), entry Cn1nc2c(=O)n(C3CC3)cnc2c1[C@](O)(c1ccc(C(F)(F)F)nc1)C(F)(F)F (single isomer, unassigned) , pIC50 value = 7.54

// assay P. vivax DHODH (Plasmodium vivax, UniProt A5K1N1), entry Cn1nc2c(=O)n(C3CC3)ncc2c1[C@](O)(c1ccc(C(F)(F)F)c(Cl)c1)C(F)(F)F (single isomer, unassigned) , pIC50 value = 8.03

// assay P. vivax DHODH (Plasmodium vivax, UniProt A5K1N1), entry CC[C@@](N)(c1ccc(C(F)(F)F)c(Cl)c1)c1c2cnn(C3CC3)c(=O)c2nn1C (single isomer, unassigned) , pIC50 value = 8.21

// assay P. vivax DHODH (Plasmodium vivax, UniProt A5K1N1), entry CC[C@@](O)(c1cc(F)c(Cl)c(F)c1)c1c2ccn(C3CC3)c(=O)c2nn1C (single isomer, unassigned) , pIC50 value = 7.72

// assay P. vivax DHODH (Plasmodium vivax, UniProt A5K1N1), entry CC(C)n1cnc2c([C@](O)(c3ccc(C(F)(F)F)c(Cl)c3)C(F)(F)F)n(C)nc2c1=O (single isomer, unassigned) , pIC50 value = 8.07

// assay P. vivax DHODH (Plasmodium vivax, UniProt A5K1N1), entry Cn1nc2c(=O)n(C3CC3)ncc2c1[C@](O)(c1ccc(C(F)(F)F)c(C#N)c1)C1CC1 (single isomer, unassigned) , pIC50 value = 7.77

Entry source: patent EP4680608B1
